Where these numbers come from: PubChem BioAssay AID1919017

system: SW1271 complex spheroids with HUVEC/MSC, growth, % test/control; assay: Anticancer human tumor SW1271 cell line growth inhibition [AhR]; conditions: second compound 10 µM; first compound 0.316 µM; stronger effect = lower value;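 note: spheroids exposed to agents for 7 days before readout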
property: viability, T/C (%)

• CC1(C)CCC(CN2CCN(c3ccc(C(=O)NS(=O)(=O)c4ccc(NCC5CCOCC5)c([N+](=O)[O-])c4)c(Oc4cnc5[nH]ccc5c4)c3)CC2)=C(c2ccc(Cl)cc2)C1 + CC(CO)NC(=O)c1cc(-c2ccc(Cl)cc2)nn(-c2cnn(C)c2)c1=O = 74.7
• Nc1ncn(C2CC(O)C(CO)O2)c(=O)n1 (stereo not drawn) + CC(CO)NC(=O)c1cc(-c2ccc(Cl)cc2)nn(-c2cnn(C)c2)c1=O = 59.1
• CC1(C)CCC(CN2CCN(c3ccc(C(=O)NS(=O)(=O)c4ccc(NCC5CCOCC5)c([N+](=O)[O-])c4)c(Oc4cnc5[nH]ccc5c4)c3)CC2)=C(c2ccc(Cl)cc2)C1 + Cc1cncc(-c2nc(NCCc3c[nH]c4ccccc34)c3ncn(C(C)C)c3n2)c1 = 49.5

* * *

tested on: SW1271 complex spheroids with HUVEC/MSC, growth, % test/control; experiment: Anticancer human tumor SW1271 cell line growth inhibition [AhR]; settings: second compound 10 µM; first compound 0.003 µM; stronger effect = lower value;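 note: spheroids exposed to agents for 7 days before readout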
Output 1.0 for records whose viability, T/C is lower than 80%, 0.0 for records at or above 80%.

• CC(C)CC(NC(=O)C(Cc1ccccc1)NC(=O)c1cnccn1)B(O)O (stereo not given) + Cc1cncc(-c2nc(NCCc3c[nH]c4ccccc34)c3ncn(C(C)C)c3n2)c1 = 1.0
• CC(C)CC(NC(=O)C(Cc1ccccc1)NC(=O)c1cnccn1)B(O)O (stereo not given) + Cc1ccccc1N=Nc1ccc(NC(=O)c2ccnn2C)c(C)c1 = 0.0
• CCc1c2c(nc3ccc(O)cc13)-c1cc3c(c(=O)n1C2)COC(=O)[C@]3(O)CC + CC(CO)NC(=O)c1cc(-c2ccc(Cl)cc2)nn(-c2cnn(C)c2)c1=O = 1.0
• CCc1c2c(nc3ccc(O)cc13)-c1cc3c(c(=O)n1C2)COC(=O)[C@]3(O)CC + Cc1ccccc1N=Nc1ccc(NC(=O)c2ccnn2C)c(C)c1 = 0.0

* * *

system: SW1271 complex spheroids with HUVEC/MSC, growth, % test/control; assay: Anticancer human tumor SW1271 cell line growth inhibition [AhR]; settings: second compound 10 µM; first compound 0.0316 µM; stronger effect = lower value;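 note: spheroids exposed to agents for 7 days before readout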
Output y for records whose viability, T/C is lower than 70%, n for records at or above 70%.

* COc1cc(Nc2ncc3c(n2)-c2ccc(Cl)cc2C(c2c(F)cccc2OC)=NC3)ccc1C(=O)O + Cc1cncc(-c2nc(NCCc3c[nH]c4ccccc34)c3ncn(C(C)C)c3n2)c1 | y
* CC1COCCN1c1cc(C2(S(C)(=N)=O)CC2)nc(-c2ccnc3[nH]ccc23)n1 (centres undefined) + Cc1ccccc1N=Nc1ccc(NC(=O)c2ccnn2C)c(C)c1 | n
* Nc1ccn(C2OC(CO)C(O)C2(F)F)c(=O)n1 (centres undefined) + Cc1cncc(-c2nc(NCCc3c[nH]c4ccccc34)c3ncn(C(C)C)c3n2)c1 | y
* Nc1ccccc1NC(=O)c1ccc(CNC(=O)OCc2cccnc2)cc1 + Cc1cncc(-c2nc(NCCc3c[nH]c4ccccc34)c3ncn(C(C)C)c3n2)c1 | y
* CC[C@@]1(O)C(=O)OCc2c1cc1n(c2=O)Cc2cc3c(CN(C)C)c(O)ccc3nc2-1 + CC(CO)NC(=O)c1cc(-c2ccc(Cl)cc2)nn(-c2cnn(C)c2)c1=O | y
* Nc1ncn(C2CC(O)C(CO)O2)c(=O)n1 (centres undefined) + CC(CO)NC(=O)c1cc(-c2ccc(Cl)cc2)nn(-c2cnn(C)c2)c1=O | y
* CC(C)c1c(-c2ccccc2)nc2c(C#N)c[nH]n2c1=O + Cc1cncc(-c2nc(NCCc3c[nH]c4ccccc34)c3ncn(C(C)C)c3n2)c1 | y
* Nc1ncn(C2CC(O)C(CO)O2)c(=O)n1 (centres undefined) + Cc1cncc(-c2nc(NCCc3c[nH]c4ccccc34)c3ncn(C(C)C)c3n2)c1 | y
* Cn1ncnc1C1c2n[nH]c(=O)c3cc(F)cc(c23)NC1c1ccc(F)cc1 (centres undefined) + Cc1ccccc1N=Nc1ccc(NC(=O)c2ccnn2C)c(C)c1 | n
* Cn1ncnc1C1c2n[nH]c(=O)c3cc(F)cc(c23)NC1c1ccc(F)cc1 (centres undefined) + CC(CO)NC(=O)c1cc(-c2ccc(Cl)cc2)nn(-c2cnn(C)c2)c1=O | n
* COc1cc(Nc2ncc3c(n2)-c2ccc(Cl)cc2C(c2c(F)cccc2OC)=NC3)ccc1C(=O)O + Cc1ccccc1N=Nc1ccc(NC(=O)c2ccnn2C)c(C)c1 | y
* NS(=O)(=O)OCC1CC(n2ccc3c(NC4CCc5ccccc54)ncnc32)CC1O (centres undefined) + Cc1cncc(-c2nc(NCCc3c[nH]c4ccccc34)c3ncn(C(C)C)c3n2)c1 | n
* COc1cccc2c1C(=O)c1c(O)c3c(c(O)c1C2=O)CC(O)(C(=O)CO)CC3OC1CC(N)C(O)C(C)O1 (centres undefined) + Cc1cncc(-c2nc(NCCc3c[nH]c4ccccc34)c3ncn(C(C)C)c3n2)c1 | y
* CC1COCCN1c1cc(C2(S(C)(=N)=O)CC2)nc(-c2ccnc3[nH]ccc23)n1 (centres undefined) + CC(CO)NC(=O)c1cc(-c2ccc(Cl)cc2)nn(-c2cnn(C)c2)c1=O | n
* COc1ccc([C@@H](O)c2cc(-c3ncnc4cc(N5CCOCC5)ccc34)c(F)cc2Cl)nn1 + Cc1cncc(-c2nc(NCCc3c[nH]c4ccccc34)c3ncn(C(C)C)c3n2)c1 | y
* COc1cc(Nc2ncc3c(n2)-c2ccc(Cl)cc2C(c2c(F)cccc2OC)=NC3)ccc1C(=O)O + CC(CO)NC(=O)c1cc(-c2ccc(Cl)cc2)nn(-c2cnn(C)c2)c1=O | y
* COc1cc(C2c3cc4c(cc3C(OC3OC5COC(C)OC5C(O)C3O)C3COC(=O)C23)OCO4)cc(OC)c1O (centres undefined) + Cc1cncc(-c2nc(NCCc3c[nH]c4ccccc34)c3ncn(C(C)C)c3n2)c1 | y
* O=C(c1cc(Cc2n[nH]c(=O)c3ccccc23)ccc1F)N1CCN(C(=O)C2CC2)CC1 + Cc1cncc(-c2nc(NCCc3c[nH]c4ccccc34)c3ncn(C(C)C)c3n2)c1 | y
* CC1(C)CCC(CN2CCN(c3ccc(C(=O)NS(=O)(=O)c4ccc(NCC5CCOCC5)c([N+](=O)[O-])c4)c(Oc4cnc5[nH]ccc5c4)c3)CC2)=C(c2ccc(Cl)cc2)C1 + Cc1ccccc1N=Nc1ccc(NC(=O)c2ccnn2C)c(C)c1 | n
* CC(C)c1c(-c2ccccc2)nc2c(C#N)c[nH]n2c1=O + Cc1ccccc1N=Nc1ccc(NC(=O)c2ccnn2C)c(C)c1 | n
* Nc1ccn(C2OC(CO)C(O)C2(F)F)c(=O)n1 (centres undefined) + CC(CO)NC(=O)c1cc(-c2ccc(Cl)cc2)nn(-c2cnn(C)c2)c1=O | y

* * *

system: SW1271 complex spheroids with HUVEC/MSC, growth, % test/control; assay: Anticancer human tumor SW1271 cell line growth inhibition [AhR]; details: second compound 10 µM; first compound 0.0949 µM; stronger effect = lower value;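 note: spheroids exposed to agents for 7 days before readout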
property: viability, T/C (%)

- CCc1c2c(nc3ccc(O)cc13)-c1cc3c(c(=O)n1C2)COC(=O)[C@]3(O)CC + CC(CO)NC(=O)c1cc(-c2ccc(Cl)cc2)nn(-c2cnn(C)c2)c1=O: 45.7
- CC(C)CC(NC(=O)C(Cc1ccccc1)NC(=O)c1cnccn1)B(O)O (centres undefined) + Cc1ccccc1N=Nc1ccc(NC(=O)c2ccnn2C)c(C)c1: 0.87
- Nc1ncn(C2CC(O)C(CO)S2)c(=O)n1 (centres undefined) + Cc1ccccc1N=Nc1ccc(NC(=O)c2ccnn2C)c(C)c1: 85
- O=C(C=Cn1cnc(-c2cc(C(F)(F)F)cc(C(F)(F)F)c2)n1)NNc1cnccn1 + Cc1cncc(-c2nc(NCCc3c[nH]c4ccccc34)c3ncn(C(C)C)c3n2)c1: 55

* * *

test system: SW1271 complex spheroids with HUVEC/MSC, growth, % test/control; assay: Anticancer human tumor SW1271 cell line growth inhibition [AhR]; details: second compound 1 µM; first compound 0.316 µM; stronger effect = lower value;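 note: spheroids exposed to agents for 7 days before readout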
property: viability, T/C (%)

- CC1(C)CCC(CN2CCN(c3ccc(C(=O)NS(=O)(=O)c4ccc(NCC5CCOCC5)c([N+](=O)[O-])c4)c(Oc4cnc5[nH]ccc5c4)c3)CC2)=C(c2ccc(Cl)cc2)C1 + Cc1ccccc1N=Nc1ccc(NC(=O)c2ccnn2C)c(C)c1: 113
- COc1cc(Nc2ncc3c(n2)-c2ccc(Cl)cc2C(c2c(F)cccc2OC)=NC3)ccc1C(=O)O + Cc1cncc(-c2nc(NCCc3c[nH]c4ccccc34)c3ncn(C(C)C)c3n2)c1: 88.2
- NS(=O)(=O)OCC1CC(n2ccc3c(NC4CCc5ccccc54)ncnc32)CC1O (stereo not given) + Cc1cncc(-c2nc(NCCc3c[nH]c4ccccc34)c3ncn(C(C)C)c3n2)c1: 154
- COc1cc(Nc2ncc3c(n2)-c2ccc(Cl)cc2C(c2c(F)cccc2OC)=NC3)ccc1C(=O)O + CC(CO)NC(=O)c1cc(-c2ccc(Cl)cc2)nn(-c2cnn(C)c2)c1=O: 72.7
- CC1COCCN1c1cc(-c2ccnn2C)c2ccnc(-c3ccn[nH]3)c2n1 (stereo not given) + CC(CO)NC(=O)c1cc(-c2ccc(Cl)cc2)nn(-c2cnn(C)c2)c1=O: 65.7
